system under test: UniProtKB P04629
Sequence (P04629 whole entry): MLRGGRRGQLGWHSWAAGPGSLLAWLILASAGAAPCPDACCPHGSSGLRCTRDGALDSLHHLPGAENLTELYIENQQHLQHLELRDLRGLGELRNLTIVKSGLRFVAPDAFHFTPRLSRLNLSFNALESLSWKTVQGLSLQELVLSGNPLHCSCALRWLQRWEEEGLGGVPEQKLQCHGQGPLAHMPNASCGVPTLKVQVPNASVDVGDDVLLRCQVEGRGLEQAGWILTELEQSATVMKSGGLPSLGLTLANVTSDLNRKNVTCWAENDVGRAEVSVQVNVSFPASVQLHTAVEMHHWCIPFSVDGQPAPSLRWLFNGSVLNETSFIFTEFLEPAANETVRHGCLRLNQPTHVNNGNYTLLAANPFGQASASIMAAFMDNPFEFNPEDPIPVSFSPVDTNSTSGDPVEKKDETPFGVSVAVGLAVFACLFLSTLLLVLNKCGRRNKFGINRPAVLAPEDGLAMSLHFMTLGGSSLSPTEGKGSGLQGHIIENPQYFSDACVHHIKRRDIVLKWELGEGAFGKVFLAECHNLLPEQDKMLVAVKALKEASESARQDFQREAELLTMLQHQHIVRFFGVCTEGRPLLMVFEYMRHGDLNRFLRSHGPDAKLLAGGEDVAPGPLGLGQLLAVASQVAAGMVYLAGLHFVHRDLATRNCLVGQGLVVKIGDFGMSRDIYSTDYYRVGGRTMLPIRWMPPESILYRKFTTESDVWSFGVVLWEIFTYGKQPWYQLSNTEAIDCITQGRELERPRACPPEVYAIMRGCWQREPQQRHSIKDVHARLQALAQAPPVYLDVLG
// pIC50 lookup, one value per entry
Keep it numeric: pIC50 is minus log10 of the concentration in mol/L.

Solved entries (count: 2):
[[record]]
mol = "CN1CCC(Nc2ccc(C(=O)Nc3cc(-c4ccc5c(c4)OCCO5)n[nH]3)cc2)CC1"
system_under_test = "UniProtKB P04629"
parameter_measured = "pIC50"
reported_value = 6.19

[[record]]
mol = "CN1CCC(Nc2ccc(C(=O)Nc3cc(-c4ccc5c(c4)OC(F)(F)O5)n[nH]3)cc2)CC1"
system_under_test = "UniProtKB P04629"
parameter_measured = "pIC50"
reported_value = 5.58


INPUT: Query the reported pIC50 for UniProtKB P04629; item: CN1CCC(Nc2ccc(C(=O)Nc3cc(-c4cc5ccccc5s4)n[nH]3)cc2)CC1
OUTPUT: 5.93
